assay text: Quantitative High-Throughput drug screen in 47 multiple myeloma cell lines against the NCATS MIPE library collection: U266_ATCC cell viability assay (AID 1919864); further: nearly all actives have a fitted effect of over 35% in size; further: potency means the concentration at half of the fitted maximal effect
condition info: U266 myeloma viability, CellTiter-Glo ATP luminescence, 48 h; series mostly up to 45.8 µM
Text: PI: Beverly A. Mock Ph.D. Laboratory of Cancer Biology and Genetics, Center for Cancer Research, National Cancer Institute, National Institute of Health, Bethesda, Maryland […] 5; Detector; 425V; Luminescence; Viewlux PerkinElmer. […] 1. […] Briefly, the corresponding myeloma cell lines were screened in 1,536-well plates with 500 cells, 5-uL per well for inhibition of cell viability (assessed by measuring ATP levels with CellTiterGlo). […]
Records with an inconclusive call do not appear. Calls of active or inactive are those of the source. The call rests on the fitted dose curve; in most records, active means well fitted cell-killing curve with a large enough effect; inconclusive means small, poorly fitted or top-dose-only effect, or effect the other way; inactive means no such curve, though single readings can be large or run the other way.
value kind: Potency

CCC1=C[C@@H]2CN(C1)Cc1c([nH]c3ccccc13)[C@@](C(=O)OC)(c1cc3c(cc1OC)N(C)[C@@H]1[C@@](O)(C(=O)OC)[C@H](OC(C)=O)[C@]4(CC)C=CCN5CC[C@]31[C@@H]54)C2	14.8 µM (active)
CCCCc1nc2cc(C=CC(=O)NO)ccc2n1CCN(CC)CC	0.935 µM (active)
O=C(NCCS(=O)(=O)c1ccc(C(F)(F)F)cn1)c1ccc(Cl)cc1	inactive
CNC(=O)CN1CCC(Oc2cc3c(Nc4cccc(Cl)c4F)ncnc3cc2OC)CC1	inactive
Cc1nc(Nc2n[nH]c3c2CN(C(=O)N[C@H](CN(C)C)c2ccccc2)C3(C)C)c2sccc2n1	0.526 µM (active)

For Cn1c(=O)n(-c2ccc(C(C)(C)C#N)cc2)c2c3cc(-c4cnc5ccccc5c4)ccc3ncc21 the compound record lists Potency as 4.18 µM (active)

Form field Potency, entry CCN1CCN(CC(=O)Nc2ccc(-c3cccc4c(=O)cc(N5CCOCC5)oc34)c3sc4ccccc4c23)CC1 : 18.7 µM (active)

Documented Potency of CC(C)(C)c1cc(C(C)(C)C)c(NC(=O)c2c[nH]c3ccccc3c2=O)cc1O : inactive

Form: compound = COCCn1c2c([n+](Cc3cnccn3)c1C)C(=O)c1ccccc1C2=O ; Potency = 0.0059 µM (active)

Entry under test: CNC(=O)c1ccccc1Nc1nc(Nc2ccc(N3CCOCC3)cc2OC)ncc1Cl . Its Potency was 13.2 µM (active)

Potency measured on COc1cc(OC2CCN(C)CC2)ccc1Nc1ncc2c(n1)n(C1CCCC1)c(=O)n2C = 14.8 µM (active)
